test: Hepatocytes stability assay (human hepatocytes); type: in vitro ADME; conditions: both sexes, cryopreserved hepatocytes, 1 μM test compound, 1×10^6 cell/mL, 37 degrees C, read-out: CLint (μL/min/million cells)
Endpoint: hepatocyte CLint at 1 μM (µL/min/1e6 cells)
Numeric only. Scale: µL/min/1e6 cells

CS(=O)(=O)N[C@H]1CCN2C(=O)COc3c(F)cc(F)cc3C3CCC(CC3)OCC12 (stereo partly shown) [Compound 43]: 34
CS(=O)(=O)N[C@H]1CCCN2C(=O)COc3ccccc3C3CCC(CC3)OCC12 (stereo partly shown) [Compound 2]: 13
CS(=O)(=O)N[C@H]1CCCN2C(=O)COc3ccccc3C3CC[C@H](CO3)OCC12 (stereo partly shown) [Compound 9]: 6.7

For CS(=O)(=O)N[C@H]1CCCN2CCCOc3ccccc3C3CCC(CC3)OCC12 (stereo partly shown) [Compound 5] , what is its reported hepatocyte CLint at 1 μM?
63
